Target: pooled human IgG
measured-attribute: Enzyme Activity Endpoint Assay (purified): IgG (ng/µL)
Give bare numbers, in ng/µL.

Any idea what Enzyme Activity Endpoint Assay (purified): IgG was measured for PRT-120 (protein) MRNATEAYNEETPKQITSVWTKGVTPLTPEDFRYNNEDVFHAPYLANQGWYDITKTFNGKDNLLCGAATAGNMLHWWFDQNKEEIEAYLKKHPEKQKIIFNNQELFDLKAAIDTKDSQTNSQLFNYFKDKAFPNLSARQLGVMPDLVLDMFINGYYLNVNKTQSTDVNRPYQDKDKRGGIFDAVFTRGDQTKLLTERHDLKNKGLNDISTLIKQELTEGKALALSHTYANVSINHVINLWGADFDAEGNLEAIYVTDSDSNESIGMKKYFVGINAAGKVAISAKKIEDENIGAQVLGLFTLSSGKDIWQQLS ? 28
